Biological target: T1, CTLA-4-hFc (immunogen A; hFc-labeled CTLA-4 extracellular domain protein) (human, UniProt P16410 36-161)
T1 construct: range 36-161; Made in HEK293 cells, purified on protein A; also called CLTA-4-hFc; CTLA-4 protein; not shown: human IgG Fc fragment (hFc) of the pCpC vector
T1 sequence (looked up): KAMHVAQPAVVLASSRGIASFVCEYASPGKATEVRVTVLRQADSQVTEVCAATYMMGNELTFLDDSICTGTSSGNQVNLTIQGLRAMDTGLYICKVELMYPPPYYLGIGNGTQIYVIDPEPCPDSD
Assay: ELISA, coated CTLA-4-hFc, competitor biotin-B7.2-hFc
OUTCOME MEASURE: Inhibition rate (%) at 2.5 nM
// units = %; emit number, no label

Known results for binders:
>  <BINDER>
40C4C6 (chimeric antibody purified from hybridoma supernatant) (antibody, V domains shown, also called mAb09; mAb009) VH: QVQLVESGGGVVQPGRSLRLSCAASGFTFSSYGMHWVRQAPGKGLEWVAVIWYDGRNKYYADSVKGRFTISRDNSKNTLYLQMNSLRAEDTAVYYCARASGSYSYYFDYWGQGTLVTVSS VL: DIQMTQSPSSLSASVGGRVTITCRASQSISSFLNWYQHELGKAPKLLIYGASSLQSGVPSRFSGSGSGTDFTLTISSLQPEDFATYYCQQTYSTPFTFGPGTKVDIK

>  <Inhibition rate (%) at 2.5 nM>
66.6

$$$$
>  <BINDER>
31C12F3 (chimeric antibody purified from hybridoma supernatant) (antibody, V domains shown, also called mAb010) VH: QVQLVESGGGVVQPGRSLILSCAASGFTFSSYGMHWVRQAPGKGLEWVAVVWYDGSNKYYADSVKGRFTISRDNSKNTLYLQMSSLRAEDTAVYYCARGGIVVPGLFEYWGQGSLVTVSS VL: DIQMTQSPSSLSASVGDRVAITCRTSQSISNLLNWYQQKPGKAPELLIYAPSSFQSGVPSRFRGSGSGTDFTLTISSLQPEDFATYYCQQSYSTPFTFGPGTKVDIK

>  <Inhibition rate (%) at 2.5 nM>
83.6

$$$$
>  <BINDER>
92C8B6 (chimeric antibody purified from hybridoma supernatant) (antibody, V domains shown, also called mAb42; mAb042) VH: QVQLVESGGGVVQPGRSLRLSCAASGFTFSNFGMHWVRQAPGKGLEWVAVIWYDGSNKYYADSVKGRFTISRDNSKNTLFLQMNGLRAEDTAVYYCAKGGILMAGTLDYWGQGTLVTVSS VL: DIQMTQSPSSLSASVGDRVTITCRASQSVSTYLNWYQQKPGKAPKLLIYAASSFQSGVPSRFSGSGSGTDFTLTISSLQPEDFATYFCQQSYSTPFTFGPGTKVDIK

>  <Inhibition rate (%) at 2.5 nM>
92

$$$$

Asked: Identify measured Inhibition rate (%) at 2.5 nM corresponding to 97A8D1 (chimeric antibody purified from hybridoma supernatant) (antibody, V domains shown, also called mAb49; mAb049) VH: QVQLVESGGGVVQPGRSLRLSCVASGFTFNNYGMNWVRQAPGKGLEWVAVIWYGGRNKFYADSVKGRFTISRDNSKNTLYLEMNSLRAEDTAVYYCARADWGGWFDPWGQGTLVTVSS VL: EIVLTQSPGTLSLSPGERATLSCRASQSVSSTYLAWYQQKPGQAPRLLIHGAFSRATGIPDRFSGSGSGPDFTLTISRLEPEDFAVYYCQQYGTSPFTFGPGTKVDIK
Given back: 91
